Measured pIC50 on RON (Homo sapiens) follows.
pIC50: −log10 of the molar value.

[[record]]
given_smiles = "Nc1ncnc(Oc2ccc(NC(=O)c3cnn(-c4ccccn4)c3C(F)(F)F)cc2F)c1Cl"
target_or_system = "RON (Homo sapiens)"
measurement_label = "pIC50"
recorded_result = "> 7.30"

[[record]]
given_smiles = "Nc1nccc(Oc2ccc(NC(=O)c3cnn(-c4ncccc4C(F)(F)F)c3C(F)(F)F)cc2F)c1Cl"
target_or_system = "RON (Homo sapiens)"
measurement_label = "pIC50"
recorded_result = "6.30 to 7.30"

[[record]]
given_smiles = "Nc1nccc(Oc2ccc(NC(=O)c3cnn(-c4cccnn4)c3C(F)(F)F)cc2F)c1Cl"
target_or_system = "RON (Homo sapiens)"
measurement_label = "pIC50"
recorded_result = "> 7.30"

[[record]]
given_smiles = "Nc1ncnc(Oc2ccc(NC(=O)c3cnn(-c4ncccc4Cl)c3C(F)(F)F)cc2F)c1Cl"
target_or_system = "RON (Homo sapiens)"
measurement_label = "pIC50"
recorded_result = "> 7.30"


Asked: GET pIC50 where system = RON (Homo sapiens) and item = "Nc1nccc(Oc2ccc(NC(=O)c3cnn(-c4ncccc4F)c3C(F)(F)F)c(F)c2)c1Cl"
Given back: > 7.30

----------
Target Or System: RON (Homo sapiens, UniProt Q04912)
Sequence (Q04912 25-1400, species assumed): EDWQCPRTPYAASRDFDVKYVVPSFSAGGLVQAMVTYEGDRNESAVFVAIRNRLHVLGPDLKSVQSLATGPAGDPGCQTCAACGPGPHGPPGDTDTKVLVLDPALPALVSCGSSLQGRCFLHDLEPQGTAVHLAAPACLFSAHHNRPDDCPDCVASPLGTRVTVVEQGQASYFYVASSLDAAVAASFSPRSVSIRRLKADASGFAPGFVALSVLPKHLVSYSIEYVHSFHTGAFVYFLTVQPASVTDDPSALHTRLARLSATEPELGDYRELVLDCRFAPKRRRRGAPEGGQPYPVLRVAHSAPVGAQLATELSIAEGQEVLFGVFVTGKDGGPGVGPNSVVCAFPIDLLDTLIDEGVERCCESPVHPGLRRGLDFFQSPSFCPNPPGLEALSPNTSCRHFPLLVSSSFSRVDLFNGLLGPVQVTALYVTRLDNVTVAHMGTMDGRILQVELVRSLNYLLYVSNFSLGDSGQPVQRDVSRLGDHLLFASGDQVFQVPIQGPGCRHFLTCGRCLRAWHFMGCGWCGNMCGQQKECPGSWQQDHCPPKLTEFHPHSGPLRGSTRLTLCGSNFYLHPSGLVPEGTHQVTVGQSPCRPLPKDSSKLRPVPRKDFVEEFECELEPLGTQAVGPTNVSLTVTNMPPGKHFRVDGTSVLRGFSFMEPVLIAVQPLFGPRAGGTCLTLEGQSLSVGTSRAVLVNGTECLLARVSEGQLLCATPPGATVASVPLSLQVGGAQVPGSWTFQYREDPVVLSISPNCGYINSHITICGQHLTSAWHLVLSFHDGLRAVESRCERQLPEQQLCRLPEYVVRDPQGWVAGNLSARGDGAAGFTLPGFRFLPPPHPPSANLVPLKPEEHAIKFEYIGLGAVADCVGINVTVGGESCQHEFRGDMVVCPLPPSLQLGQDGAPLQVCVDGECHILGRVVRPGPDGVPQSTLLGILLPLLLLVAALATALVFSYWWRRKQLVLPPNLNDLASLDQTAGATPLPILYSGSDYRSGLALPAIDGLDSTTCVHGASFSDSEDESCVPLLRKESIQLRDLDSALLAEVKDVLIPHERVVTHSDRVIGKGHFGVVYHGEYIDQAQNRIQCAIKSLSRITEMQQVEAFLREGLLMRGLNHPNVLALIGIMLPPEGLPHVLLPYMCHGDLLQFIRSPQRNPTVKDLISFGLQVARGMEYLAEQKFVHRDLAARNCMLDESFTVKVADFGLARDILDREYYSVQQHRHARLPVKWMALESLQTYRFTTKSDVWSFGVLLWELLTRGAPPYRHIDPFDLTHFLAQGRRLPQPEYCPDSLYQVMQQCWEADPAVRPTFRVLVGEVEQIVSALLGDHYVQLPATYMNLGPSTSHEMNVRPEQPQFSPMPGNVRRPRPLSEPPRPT
Experiment Summary: Inhibitory activity against RON, TR-FRET kinase assay
Assay type: biochemical
Cond: TR-FRET enzyme assay
Measurement Label: IC50

[[record]]
compound = "Nc1nccc(Oc2ccc(NC(=O)c3cnn(-c4ncccn4)c3C(F)(F)F)cc2F)c1Cl [Example 21]"
target_or_system = "RON (Homo sapiens, UniProt Q04912)"
measurement_label = "IC50"
recorded_result = "< 50 nM"

[[record]]
compound = "CCc1cccnc1-n1ncc(C(=O)Nc2ccc(Oc3ncnc(N)c3Cl)c(F)c2)c1C(F)(F)F [Example 58]"
target_or_system = "RON (Homo sapiens, UniProt Q04912)"
measurement_label = "IC50"
recorded_result = "50 to 500 nM"

[[record]]
compound = "Cn1cc(-n2ncc(C(=O)Nc3ccc(Oc4ncnc(N)c4Cl)c(F)c3)c2C(F)(F)F)cn1 [Example 42]"
target_or_system = "RON (Homo sapiens, UniProt Q04912)"
measurement_label = "IC50"
recorded_result = "500 to 5000 nM"

[[record]]
compound = "Cc1ccnc(-n2ncc(C(=O)Nc3ccc(Oc4ccnc(N)c4Cl)c(F)c3)c2C(F)(F)F)c1 [Example 12]"
target_or_system = "RON (Homo sapiens, UniProt Q04912)"
measurement_label = "IC50"
recorded_result = "50 to 500 nM"

[[record]]
compound = "Nc1nccc(Oc2ccc(NC(=O)c3cnn(-c4ncccc4F)c3C(F)(F)F)cc2F)c1NC1CCCCC1 [Example 33]"
target_or_system = "RON (Homo sapiens, UniProt Q04912)"
measurement_label = "IC50"
recorded_result = "50 to 500 nM"

[[record]]
compound = "Nc1ncnc(Oc2ccc(NC(=O)c3cnn(-c4ncccc4C(F)(F)F)c3C(F)(F)F)cc2F)c1Cl [Example 53]"
target_or_system = "RON (Homo sapiens, UniProt Q04912)"
measurement_label = "IC50"
recorded_result = "50 to 500 nM"


Asked: # return recorded IC50 for entry CCc1ccnc(-n2ncc(C(=O)Nc3ccc(Oc4ncnc(N)c4Cl)c(F)c3)c2C(F)(F)F)c1 [Example 55]
Given back: 500 to 5000 nM

Asked: # return recorded IC50 for entry Nc1nccc(Oc2ccc(NC(=O)c3cnn(-c4ncc(F)cn4)c3C(F)(F)F)cc2F)c1Cl [Example 26]
Given back: 50 to 500 nM

Asked: # return recorded IC50 for entry CC(C)Nc1c(Oc2ccc(NC(=O)c3cnn(-c4ncccc4F)c3C(F)(F)F)cc2F)ccnc1N [Example 34]
Given back: < 50 nM

Asked: # return recorded IC50 for entry O=C(Nc1ccc(Oc2ncnc(NC3CC3)c2Cl)c(F)c1)c1cnn(-c2ncccc2F)c1C(F)(F)F [Example 65]
Given back: 500 to 5000 nM

Asked: # return recorded IC50 for entry O=C(Nc1ccc(Oc2ncnc(NC3CC3)c2Cl)c(F)c1)c1cnn(-c2ncccc2Cl)c1C(F)(F)F [Example 66]
Given back: > 5000 nM

----------
Measured IC50 on cMET (Homo sapiens, UniProt P08581) follows.
Sequence (P08581 25-1390): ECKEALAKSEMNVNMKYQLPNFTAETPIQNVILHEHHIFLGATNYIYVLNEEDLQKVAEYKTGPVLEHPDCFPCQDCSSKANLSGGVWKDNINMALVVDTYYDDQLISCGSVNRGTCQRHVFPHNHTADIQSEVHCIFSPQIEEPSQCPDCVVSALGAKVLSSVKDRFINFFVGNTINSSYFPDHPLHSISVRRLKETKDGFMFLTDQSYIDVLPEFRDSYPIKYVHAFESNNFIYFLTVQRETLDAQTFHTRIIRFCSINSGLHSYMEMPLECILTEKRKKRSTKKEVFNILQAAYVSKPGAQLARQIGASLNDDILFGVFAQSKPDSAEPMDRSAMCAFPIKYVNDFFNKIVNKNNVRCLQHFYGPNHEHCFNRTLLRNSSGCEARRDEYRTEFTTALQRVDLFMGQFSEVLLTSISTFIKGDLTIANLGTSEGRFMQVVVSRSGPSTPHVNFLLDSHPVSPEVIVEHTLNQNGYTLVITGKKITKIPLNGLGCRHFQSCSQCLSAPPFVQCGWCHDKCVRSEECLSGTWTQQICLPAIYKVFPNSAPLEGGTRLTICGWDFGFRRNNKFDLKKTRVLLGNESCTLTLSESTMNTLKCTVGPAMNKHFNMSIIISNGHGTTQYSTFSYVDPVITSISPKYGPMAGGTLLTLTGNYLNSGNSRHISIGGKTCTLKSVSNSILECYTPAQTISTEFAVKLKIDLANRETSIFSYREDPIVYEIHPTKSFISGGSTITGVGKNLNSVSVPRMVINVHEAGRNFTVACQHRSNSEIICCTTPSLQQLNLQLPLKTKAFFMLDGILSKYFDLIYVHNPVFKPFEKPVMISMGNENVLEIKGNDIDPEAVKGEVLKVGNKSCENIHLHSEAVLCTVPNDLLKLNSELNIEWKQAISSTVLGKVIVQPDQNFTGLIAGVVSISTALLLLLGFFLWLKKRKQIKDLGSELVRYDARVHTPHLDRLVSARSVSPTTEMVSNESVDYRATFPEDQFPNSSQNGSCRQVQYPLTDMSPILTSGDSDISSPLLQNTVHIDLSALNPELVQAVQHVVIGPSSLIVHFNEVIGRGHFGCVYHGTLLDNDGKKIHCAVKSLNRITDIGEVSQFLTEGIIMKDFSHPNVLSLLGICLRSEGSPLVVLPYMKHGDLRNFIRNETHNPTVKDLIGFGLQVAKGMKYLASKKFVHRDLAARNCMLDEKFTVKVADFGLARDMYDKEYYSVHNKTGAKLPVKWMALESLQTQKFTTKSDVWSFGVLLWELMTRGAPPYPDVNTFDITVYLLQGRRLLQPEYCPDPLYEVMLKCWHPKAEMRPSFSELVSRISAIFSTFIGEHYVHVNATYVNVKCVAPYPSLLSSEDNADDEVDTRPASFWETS

Some entries whose results are on file:
[[record]]
compound = "Nc1nccc(Oc2ccc(NC(=O)c3cnn(-c4ccncc4)c3C(F)(F)F)cc2F)c1Cl [Example 19]"
measurement_label = "IC50"
recorded_result = "0.5 to 5 µM"

[[record]]
compound = "Cc1ccnc(-n2ncc(C(=O)Nc3ccc(Oc4ncnc(N)c4Cl)c(F)c3)c2C(F)(F)F)n1 [Example 62]"
measurement_label = "IC50"
recorded_result = "> 5 µM"

[[record]]
compound = "Cc1ccnc(-n2ncc(C(=O)Nc3ccc(Oc4ccnc(N)c4Cl)c(F)c3)c2C(F)(F)F)c1 [Example 12]"
measurement_label = "IC50"
recorded_result = "0.5 to 5 µM"

[[record]]
compound = "Cc1ccnc(-n2ncc(C(=O)Nc3ccc(Oc4ccnc(N)c4Cl)c(F)c3)c2C(F)(F)F)n1 [Example 23]"
measurement_label = "IC50"
recorded_result = "> 5 µM"

[[record]]
compound = "Nc1ncnc(Oc2ccc(NC(=O)c3cnn(-c4ccc(F)cn4)c3C(F)(F)F)cc2F)c1Cl [Example 50]"
measurement_label = "IC50"
recorded_result = "> 5 µM"

[[record]]
compound = "Nc1nccc(Oc2ccc(NC(=O)c3cnn(-c4nc(-c5ccccc5)cs4)c3C(F)(F)F)cc2F)c1Cl [Example 3]"
measurement_label = "IC50"
recorded_result = "> 5 µM"

[[record]]
compound = "Nc1ncnc(Oc2ccc(NC(=O)c3cnn(-c4cncnc4)c3C(F)(F)F)cc2F)c1Cl [Example 44]"
measurement_label = "IC50"
recorded_result = "> 5 µM"

[[record]]
compound = "Cc1csc(-n2ncc(C(=O)Nc3ccc(Oc4ccnc(N)c4Cl)c(F)c3)c2C(F)(F)F)n1 [Example 40]"
measurement_label = "IC50"
recorded_result = "> 5 µM"

[[record]]
compound = "Nc1nccc(Oc2ccc(NC(=O)c3cnn(-c4cccnn4)c3C(F)(F)F)cc2F)c1Cl [Example 20]"
measurement_label = "IC50"
recorded_result = "0.5 to 5 µM"


Here's the next entry for you.
Asked: GET IC50 where system = cMET (Homo sapiens, UniProt P08581) and item = Cc1ccc(-n2ncc(C(=O)Nc3ccc(Oc4ncnc(N)c4Cl)c(F)c3)c2C(F)(F)F)nc1 [Example 48]
Given back: > 5 µM
